# experimental protocol: growth inhibition of PfHsp90-dependent yeast, primary screen, antimalarial PfHsp90 inhibitor project, S. cerevisiae, BacTiter-Glo luminescence (AID 504594);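 further: 0% = DMSO neutral control wells and 100% = 20 µM radicicol control wells; higher value means stronger growth inhibition because the sign is flipped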
# recorded conditions: S. cerevisiae expressing PfHsp90, BacTiter-Glo growth, 48 h; at 9.4 µM
The whole screen tested about 2,000 compounds, of which fewer than 10 were called active.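 How the source made its calls: active means growth inhibition of at least 75% in every replicate, which also brings the mean inhibition to 75% or more; inconclusive means mean inhibition 75% or more but some replicate under 75%; inactive means the rest.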 Not all results are given here.
The reply should name one outcome from Yes for active, No for inactive

Look over these answered cases.
> print(dat)
                                   compound  qualitative.label
1  O=C(CN1CC[n+]2c(-c3cccs3)csc21)c1ccc(Br)cc1                 No
2  CC12CC(c3ccccc3O1)C(C(=O)N1CCOCC1)C(=O)N2 (stereo not given)                 No
3  C=C(C)[C@@H]1CC=C(CN2CCC(N3CCC(C(=O)N4CCCC4)CC3)CC2)CC1                 No
4             Cc1nc(N)sc1C(=O)N/N=C/c1ccco1                 No
5  COc1cccc(CC(=O)NCC2COc3ccccc3O2)c1OC (stereo not given)                 No

Prompt line: For CC(=O)Oc1ccc(C2OC(=O)c3ccccc3N2C(C)=O)cc1 (stereo not given) , what call appears in the results of this test?
Response line: No

###

# experimental protocol: growth inhibition of PfHsp90-dependent yeast, primary screen, antimalarial PfHsp90 inhibitor project, S. cerevisiae, BacTiter-Glo luminescence (AID 504594);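 further: 0% = DMSO neutral control wells and 100% = 20 µM radicicol control wells; higher value means stronger growth inhibition because the sign is flipped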
# recorded conditions: S. cerevisiae expressing PfHsp90, BacTiter-Glo growth, 48 h; at 9.4 µM; hits give high values
Screen size: about 2,000 compounds; fewer than 10 were called active. A selection follows.
The compounds listed here are annotated with their growth inhibition.
Report the value in % with no unit label.

Here's what some known entries look like.
> print(dat)
                                   compound    reported.metric  endpoint.value
1  COc1ccc2c(c1OC)C(=O)N1C2SC[C@H]1C(=O)NC1CC(C)(C)NC(C)(C)C1 (stereo partly drawn)  growth inhibition            2.59
2                 O=C(Oc1cccccc1=O)c1ccccc1  growth inhibition              11
3      O=C(Cc1ccccc1[N+](=O)[O-])NCc1ccncc1  growth inhibition              15
4     CC(=O)c1c(C)[nH]c(C(=O)OCc2ccccc2)c1C  growth inhibition             -16

Entry Cc1ccccc1OCC(O)CN1CCN(C)CC1 (stereo not drawn) , growth inhibition reported as 2.9

Entry CC(C)CCc1noc(CN2CCC(CCN3CCCC3=O)CC2)n1 , growth inhibition reported as 4.25

Entry COc1c2c(nc3occc13)C(CC=C(C)C)(OC)C(O)CC2 (stereo not drawn) , growth inhibition reported as 3.58

Entry Cc1oc(/C=N/NC(=O)CC2(C)OCCO2)cc1Br , growth inhibition reported as -11.1

###

# experimental protocol: growth inhibition of PfHsp90-dependent yeast, primary screen, antimalarial PfHsp90 inhibitor project, S. cerevisiae, BacTiter-Glo luminescence (AID 504594);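 further: 0% = DMSO neutral control wells and 100% = 20 µM radicicol control wells; higher value means stronger growth inhibition because the sign is flipped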
# recorded conditions: S. cerevisiae expressing PfHsp90, BacTiter-Glo growth, 48 h; at 9.4 µM; hits give high values
In all, about 2,000 compounds went through this assay and fewer than 10 were called active. These entries were drawn from the full list.
The molecules listed here are annotated with their growth inhibition.
Report the value in % with no unit label.

Here's what some known entries look like.
> print(dat)
                                   molecule  endpoint.value
1  Cc1ccc2c(c1)C1OCCC1C1N2C(=O)C2C(C(=O)O)C3C=CC21O3 (centres undefined)           -2.86
2       COc1ccc2[nH]c(=O)c(CNC3CCCCC3)cc2c1             -29
3  CC1(C)CC(C(CC(=O)O)c2ccccc2)CCO1 (centres undefined)          -0.107
4                    O=c1c2ccccc2nc2n1CCCN2            6.84
5  Cc1cc(=O)oc2cc(OC(C)C(=O)NCC3CCCO3)ccc12 (centres undefined)            -2.4

Entry COc1cccc(N2CC34C=CC(O3)C(C(=O)O)C4C2=O)c1 (centres undefined) , growth inhibition reported as -1.36

Entry CC1(C)Cc2nc3sc4c(=O)n(CC(N)=O)cnc4c3cc2CO1 , growth inhibition reported as -2.88

Entry Cc1ccc(P(=O)(CSC(=N)N)c2ccc(C)cc2)cc1 , growth inhibition reported as -1.66
